B1: Transcription factor SOX-4, residues 60 to 127; numbered along this chain, Q06945 (parent)
chain: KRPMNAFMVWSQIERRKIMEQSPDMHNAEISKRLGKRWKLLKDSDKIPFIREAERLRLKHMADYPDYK

- Variants of: B1
- experiment: abundance fitness (aPCA) (normalised: wild type 0, dead -1); higher = more abundant; growth selection in yeast, the domain comes from the species named
- conditions: Homo sapiens
observable: abundance fitness
Please state the value as a number alone, without comment.

Some variants with known abundance fitness results, for comparison:
>>> test_value("D43P")
-0.137
>>> test_value("I47G")
-0.231
>>> test_value("H26C")
0.127
>>> test_value("S22T")
-0.326
>>> test_value("Y67K")
0.116
>>> test_value("K59A")
-0.04
>>> test_value("Q21F")
-0.426
>>> test_value("W38C")
-0.849

Now, please, on to the next variant.
[in] Report abundance fitness for N27R please.
[out] -0.112
